# targetSystem: Arpp21 61-260 (UniProt Q9DCB4 61-260)
# Sequence (Q9DCB4 61-260): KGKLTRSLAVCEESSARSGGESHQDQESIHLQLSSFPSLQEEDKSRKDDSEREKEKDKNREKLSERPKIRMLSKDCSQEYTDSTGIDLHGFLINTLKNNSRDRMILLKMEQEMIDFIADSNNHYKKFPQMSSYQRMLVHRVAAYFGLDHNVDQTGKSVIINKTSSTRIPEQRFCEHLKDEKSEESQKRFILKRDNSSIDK
# assayProtocol: ITC; 25 C, TCEP; panel label, Methods and text say 61-260, legend says 130-260; 20 mM sodium phosphate pH 6.5, 300 mM NaCl, 2 mM DTT (TCEP instead of DTT for ITC); NMR 298 K, 10% D2O, 50 uM protein; ITC 25 C, 20 uM protein, 200 uM RNA in syringe
# measurementConditions: protein: recombinant; tags: His-GB1 tag, TEV-cleaved
observationType: pKd
Answers are plain numbers, as −log10 of the molar value.

Complete the entry with pKd for UUUUUUUUU (ssRNA) [U9 RNA] 5.32

The reported numbers originate from paper PMC10928157.
